Record form. Attribute: pest or weed control at 200 ppm. Fill in for each entry.
System: Septoria tritici (SEPTTR)
Assay: Septoria blotch of wheat foliar protectant test
Format: in vivo
Conditions: Zymoseptoria tritici; 200 ppm foliar, inoculated one day after treatment; read-out: Activity against fungal diseases SEPTTR
Procedure: The plants were inoculated with the fungus one day after treatment. ***=80-100% control; **=50-79% control; *=0-49% control. […] The activity of the compounds as effective fungicides was determined by applying the compounds to plants and observing control of fungal disease. […] Disease severity was evaluated 4 to 25 days later, depending on the speed of disease development. […] Table 1 presents the activity of typical compounds of the present invention when evaluated in these experiments. […]

Entry Fc1cc(F)c2ncnc(NCCc3ccc(Oc4cc(C(F)(F)F)ccn4)c(Cl)c3)c2c1F [Compound 92] has what pest or weed control at 200 ppm?
50 to 79%

Moving on to Fc1ccc(F)c2c(NCCc3ccccc3)ncnc12 [Compound 94]
50 to 79%

Moving on to COc1cc(CCNc2ncnc3c(F)ccc(F)c23)ccc1Oc1c(Cl)cnc(C(Cl)(Cl)Cl)c1Cl [Compound 89]
50 to 79%

Moving on to [O-][n+]1ccc(Oc2ccc(CCNc3ncnc4c(F)ccc(F)c34)cc2)c(C(F)(F)F)c1 [Compound 84]
80 to 100%

Moving on to Cc1cc(CCNc2ncnc3c(F)ccc(F)c23)ccc1Oc1cc(C(F)(F)F)ccn1 [Compound 25]
80 to 100%

Moving on to Fc1nc(C(F)(F)F)nc(Oc2ccc(CCNc3ncnc4c(F)ccc(F)c34)cc2)c1F [Compound 100]
0 to 49%

Moving on to COc1cc(C(F)(F)F)cc(Oc2ccc(CCNc3ncnc4c(F)ccc(F)c34)cc2C)n1 [Compound 29]
80 to 100%

Moving on to CC(Nc1ncnc2c(F)ccc(F)c12)c1ccccc1 (centres unmarked) [Compound 119]
80 to 100%

Moving on to Fc1ccc(F)c2c(NC3Cc4ccc(Oc5ccc(C(F)(F)F)cn5)cc4C3)ncnc12 (centres unmarked) [Compound 111]
80 to 100%

Moving on to COc1ccc(CCNc2ncnc3c(F)ccc(F)c23)cc1Br [Compound 32]
0 to 49%

Moving on to COc1cc(CCNc2ncnc3c(F)ccc(F)c23)ccc1Oc1cc(C(C)(F)F)ccn1 [Compound 16]
80 to 100%

Moving on to COc1cc(C(F)(F)F)cc(Oc2ccc(CCNc3ncnc4c(F)ccc(F)c34)cc2)n1 [Compound 9]
50 to 79%

Moving on to Cc1c(CCNc2ncnc3c(F)ccc(F)c23)ccc(Oc2cc(C(F)(F)F)ccn2)c1C [Compound 26]
80 to 100%

Moving on to Fc1ccc(F)c2c(NCCc3ccc(Oc4cc(C(F)(F)F)ccn4)cc3)ncnc12 [Compound 6]
80 to 100%

Moving on to COc1ccc2c(c1)CC(Nc1ncnc3c(F)ccc(F)c13)C2 (centres unmarked) [Compound 105]
0 to 49%

Moving on to COc1cc(CCNc2ncnc3c(F)ccc(F)c23)ccc1Oc1nc(C(F)(F)F)nc(F)c1F [Compound 101]
0 to 49%

Moving on to Cc1c(O)ccc(CCNc2ncnc3c(F)ccc(F)c23)c1C [Compound 23]
0 to 49%

----------
System: Puccinia recondita tritici (PUCCRT)
Test: Leaf rust of wheat foliar protectant test
Assay type: in vivo
Details: 200 ppm foliar, inoculated one day after treatment, read-out: Activity against fungal diseases PUCCRT
metric: pest or weed control at 200 ppm

Entry COc1cc(CCNc2ncnc3c(F)ccc(F)c23)ccc1Oc1c(F)cnc(C(F)(F)F)c1F has what pest or weed control at 200 ppm?
80 to 100%

Moving on to Cc1c(O)ccc(CCNc2ncnc3c(F)ccc(F)c23)c1C
50 to 79%

Moving on to [O-][n+]1ccc(C(F)(F)F)cc1Oc1ccc(CCNc2ncnc3c(F)ccc(F)c23)cc1
80 to 100%

Moving on to Fc1cc(F)c2ncnc(NCCc3ccc(Oc4cc(C(F)(F)F)ccn4)c(Cl)c3)c2c1F
50 to 79%

Moving on to Fc1ccc(F)c2c(NCCc3ccc(Oc4ccncc4C(F)(F)F)cc3)ncnc12
80 to 100%

Moving on to Cc1cc(Oc2cc(C(F)(F)F)ccn2)c(C)cc1CCNc1ncnc2c(F)ccc(F)c12
80 to 100%

Moving on to COc1cc(CCNc2ncnc3c(F)ccc(F)c23)ccc1Oc1ccnc(C(F)(F)F)n1
80 to 100%

Moving on to Fc1ccc(F)c2c(NCCc3ccc(Oc4cc(C(F)(F)F)ccn4)c(Cl)c3)ncnc12
80 to 100%

Moving on to COc1cc(CCNc2ncnc3c(F)ccc(F)c23)ccc1Oc1ccnc(C(F)(F)F)c1Cl
80 to 100%

Moving on to CC(F)(F)c1cc[n+]([O-])c(Oc2ccc(CCNc3ncnc4c(F)ccc(F)c34)cc2)c1
80 to 100%

Moving on to COc1cc(CCNc2ncnc3c(F)ccc(F)c23)ccc1Oc1ccnc(C(F)(F)F)c1
80 to 100%

Moving on to Fc1ccc(F)c2c(NCCc3ccccc3)ncnc12
80 to 100%

Moving on to Fc1ccc(F)c2c(NCCOc3ccc(Oc4cc(C(F)(F)F)ccn4)cc3)ncnc12
80 to 100%

Moving on to Cc1cc(CCNc2ncnc3c(F)ccc(F)c23)ccc1Oc1nc(F)c(F)c(N)c1F
80 to 100%

Moving on to CCCOc1cc(CCNc2ncnc3c(F)ccc(F)c23)ccc1Oc1cc(C(F)(F)F)ccn1
80 to 100%

Moving on to COc1cc(C(F)(F)F)cc(Oc2ccc(CCNc3ncnc4c(F)ccc(F)c34)cc2)n1
80 to 100%

Moving on to COc1ccc(CCNc2ncnc3c(F)ccc(F)c23)cc1F
80 to 100%
